# EXPERIMENTAL TARGET: Microphthalmia-associated transcription factor (Homo sapiens)
# METHOD: MITF inhibitors, primary screen, biochemical, AlphaScreen, human (AID 1259374);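 further: 0% = vehicle wells with protein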
# EXPERIMENTAL PARAMETERS: AlphaScreen MITF homodimerization, bead proximity signal; at 2.6 µM; active compounds read high
Out of some 650,000 compounds screened, about 5,900 (0.91%) were called active. What follows is part of a selection rich in actives, with near analogues and random picks from the rest.
This listing pairs compounds with measured inhibition.
Give the value, in units of %, as a plain number.

>>> observed_result("Clc1ccc(Cl)c(N2Cc3cc4c(cc3C2)CN(c2cc(Cl)ccc2Cl)C4)c1")
4.43
>>> observed_result("COc1ccc(Br)cc1CN1CCN(C(=O)c2cccnc2)CC1")
88.2
>>> observed_result("COc1cccc(Nc2nnc(Cc3ccc(Cl)cc3)c(=O)[nH]2)c1")
10.6

Give its inhibition value. Item: CC(C)(C)NCCOCCOc1ccc(I)cc1 40.6

# inhibition lookup, item N#C/C(=C(/O)c1cc(-c2ccccc2)nc2ccccc12)c1nc2ccccc2[nH]1 -0.49

Item CSc1cccc(NC(=O)C2C3C=CC4(O3)C2C(=O)N(CCCN2CCCC(C)C2)C4C(=O)NC2CCCCC2)c1 (stereo not given) has what recorded inhibition? 1.08

Please give the measured inhibition for this compound: O=C(NCc1ccccc1)NC(=O)c1cccnc1 22.7

Fill blank: measured inhibition of the compound COc1cc(OC)c(OC)cc1CN1CCN(C(=O)c2ccccc2F)CC1 is ____. 17.8

Endpoint output: inhibition of C=CCNC(=O)C(=O)Nc1ccccc1CC . Value? 19.9

Look at this compound and give its reported inhibition. O=C(Nc1cccc(-c2nc3cccnc3s2)c1)C(F)(F)F -3.61

I have this compound here, CNC(=O)COC(=O)/C=C/c1ccc(C)o1 , and I need its recorded inhibition. 18.9

Give its inhibition value. Item: Cc1ccn2cc(-c3ccc(NS(=O)(=O)c4ccc(I)cc4)cc3)nc2n1 -8

Fill in the blank: the reported inhibition of COc1cc(/C=C/C(=O)OCC(N)=O)ccc1OCC#N is ____. 6.64

Which inhibition value is on record for COc1ccc(C(=O)N/N=C/c2c(O)ccc3ccccc23)cc1 ? 16.9

Value lookup for inhibition; key = COc1ccc(Cc2nnc(N/N=C/c3ccccc3O)[nH]c2=O)cc1OC 112

Fill in: inhibition of c1ccc(COc2ccccc2CNCc2cccnc2)cc1 is ___ -4.27

Any idea what its inhibition is? The compound is CCOC(=O)C1C(=O)C=C(c2ccc(F)cc2)CC1c1cccs1 (stereo not given) -5.44

Form field: reported inhibition of O=C1N[C@H](Cc2ccc(O)cc2)C(=O)N2CCN(C(=O)c3ccccc3Cl)C[C@H]12 -6.27

Sample O=[N+]([O-])c1ccccc1S(=O)(=O)N1CCN(C2Cc3ccccc3C2)CC1 — what was its inhibition? 52.9

# lookup: inhibition of O=C(Cc1ccc(F)cc1)Nc1cnn(-c2cccc(C(=O)Nc3ccc(N4CCOCC4)cc3)c2)c1 -19.1

// lookup inhibition for COc1cccc(OC)c1C(=O)N1CCN(Cc2ccccc2F)CC1 55.7
